Kindly state binning response for each of the entries shown.
Assayed system: Biotinylated CoV2 Spike ECD PreS-AVI protein (SARS-CoV-2, UniProt P0DTC2 14-1208)
Measurement notes: Octet binning; competitor Std-D
Answers are plain numbers.

Can you give me binning response for all of these, one by one?
1. 9B2 VHH-Fc (Fc fusion) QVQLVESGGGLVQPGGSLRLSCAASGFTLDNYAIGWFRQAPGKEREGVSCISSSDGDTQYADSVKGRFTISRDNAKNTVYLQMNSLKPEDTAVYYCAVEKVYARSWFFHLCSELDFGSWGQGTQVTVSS
2. 13C8 VHH-Fc (Fc fusion) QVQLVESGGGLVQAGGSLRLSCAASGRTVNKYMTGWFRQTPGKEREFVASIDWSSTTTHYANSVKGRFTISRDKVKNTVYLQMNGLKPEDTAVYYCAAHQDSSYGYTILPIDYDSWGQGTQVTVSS
3. 19C10 VHH-Fc (Fc fusion) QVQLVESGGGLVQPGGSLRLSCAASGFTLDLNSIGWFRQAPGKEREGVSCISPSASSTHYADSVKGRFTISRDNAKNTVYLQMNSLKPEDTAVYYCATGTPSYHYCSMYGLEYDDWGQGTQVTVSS
4. 15H1 VHH-Fc (Fc fusion) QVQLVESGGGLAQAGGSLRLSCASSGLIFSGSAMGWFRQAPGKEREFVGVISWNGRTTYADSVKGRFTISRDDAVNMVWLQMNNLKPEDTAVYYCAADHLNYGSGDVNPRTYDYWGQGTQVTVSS

RESULT:
1: 0.05; 2: 0.04; 3: 0.04; 4: 0.05
